Please go through the items and note down their GI50.
Test system: NCI/ADR-RES ovarian
Assay: NCI tumour cell line growth inhibition, 48 h

The cases that follow already have their GI50 on record.
compound	system_under_test	GI50
Clc1ccccc1CNc1c2ccccc2nc2ccccc12	NCI/ADR-RES ovarian	2.04 µM
OCCNc1nc(Nc2ccc(Cl)c(Cl)c2)nc2ccccc12	NCI/ADR-RES ovarian	4.91 µM
CC(=[N-])N1CCC[C@@H](Nc2c3ccccc3nc3ccccc23)C1.[Cl][Pt].[NH-]CCC[NH-]	NCI/ADR-RES ovarian	46 µM

Please give GI50, item by item, for the list that follows.
1. CCCN(CCC)c1ccc(/C=N/NC(=O)c2cccnc2)c(OC)c1
2. Cc1ccc(C(=O)/C(=C\c2ccc([N+](=O)[O-])cc2)S(=O)Cc2ccc(Cl)cc2)cc1 (stereo not given)
3. C/C(O)=C(\C#N)C(=O)Nc1ccc(C(F)(F)F)cc1

Result string:
["24.8 µM", "2.72 µM", "21.4 µM"]

Parameters: items (list). Returns: GI50 for each item.
1. CC1=C(C(=O)Nc2cc(Cl)c3[nH]ncc3c2)C(c2ccc(C(F)(F)F)cc2)CC(=O)N1 (stereo not given)
2. COc1cc(-c2csc(NC(=O)Nc3ccc(C(F)(F)F)cc3)n2)cc(OC)c1OC
3. C/C(=C\c1cc(C(F)(F)F)n(-c2ccc(N)cc2)n1)[C@@H]1C[C@@H]2O[C@]2(C)CCC[C@H](C)[C@H](O)[C@@H](C)C(=O)C(C)(C)[C@@H](O)CC(=O)O1

Result string:
> 25 µM
2.12 µM
0.164 µM

For each of the compounds below, state GI50.
1. CCCCCCCCCNC(=O)/C=C/c1ccc(O)c(O)c1
2. Cc1cn2c(/C=N/N=C(N)N)c(-c3ccccn3)nc2s1

Result string:
["15.4 µM", "> 27.1 µM"]

----------
Tested on: SF-539 CNS
Test: NCI tumour cell line growth inhibition, 48 h
Exercise: for every item that follows, state its recorded TGI.

compound	system_under_test	TGI
Cc1cc(N2CCOCC2)nc(N(CCCNc2ccnc3cc(Cl)ccc23)Cc2ccco2)n1	SF-539 CNS	4.02 µM
Cn1c2ccccc2c(=O)c2cccc(C(=O)NCC(=O)O)c21	SF-539 CNS	> 100 µM
CCC(=O)Nc1ccc(C)c(-c2ccc(C(=O)NCC3CC3)cc2)c1	SF-539 CNS	> 25 µM

Can you give me TGI for all of these, one by one?
1. COc1ccc(NC(C)=O)c(C(O)CCNC(C)=O)c1 (stereo unspecified)
2. Cc1cc2c(C(N)=O)c(N)n(-c3c(C)ccc(O)c3C)c2nc1C
3. Cc1cccc(C(C)(C)C)c1NC(=O)CCc1nc(=S)[nH][nH]1

Result string:
> 100 µM
2.88 µM
> 100 µM

----------
Field: TGI. Provide a value for each of the molecules that follow.
Tested on: M14 melanoma
Experiment: NCI tumour cell line growth inhibition, 48 h
Answers are plain numbers, in µM.

molecule	units_symbol	TGI
CN(C)CCNc1c2ccccc2nc2oc3ccccc3c12	µM	32.5
O=C1C2CCN(CC2)C1(CO)CO	µM	38.8
O=C(Nc1cccc(-c2ccc(Cl)c(C(F)(F)F)c2)c1)C1CCN(Cc2cccc3cccnc23)CC1	µM	3.16
CC(=O)OCC1OC(O[C@@H]2C[C@H]3C(C)(C)[C@@H](OC(C)=O)CC[C@]3(C)[C@H]3CC[C@]45C[C@]4(CC[C@H]5[C@@H](C)C[C@@H](O)[C@H](O)C(C)(C)F)[C@@]32C)C(O)C(O)C1O (some centres undefined)	µM	3.28

Moving on to the next molecule.
Query string: Answer with the recorded TGI of CC([C@H]1CCC2C3CCC4C[C@@H](N)CC[C@]4(C)C3CC[C@@]21C)N(C)C (some centres undefined) only.
Result string: 3.54

// data source = PubChem BioAssay (NCI)
